The reported measurements were obtained from ChEMBL document CHEMBL4513216.

experiment: Toxicity liver stage against HepG2, at 10uM; type: cell-based; set-up: test concentration 10 uM, cell line HepG2-A16-CD81EGFP; settings: human, HepG2-A16-CD81EGFP cells; read-out: INHIBITION
ATTRIBUTE MEASURED: cytotoxicity at 10 µM (%)
Provide the reading as a plain figure in %.

Example cases with answers are listed next.
O=C(CN1CCCC1Cn1cncn1)NC(C1CC1)C1CC1 (stereo not drawn) :: -12.8
CNC(=O)C1CCN(C(=O)NCCc2ccc(Cl)s2)CC1 :: -12.3
CCc1nc(C)c(C(=O)N2CCNCC2C(=O)Nc2ccc(C)nc2)o1 (stereo not drawn) :: -4

Q) Param item = O=C(CN1CCCCCC1=O)NCC1CCN(c2ccccc2)C1 (stereo not drawn) ; retrieve measured cytotoxicity at 10 µM.
A) -6.5

Q) Param item = COc1ccc(CCN(C)C(=O)CN2C(=O)OC[C@@H]2C(C)C)cc1OC ; retrieve measured cytotoxicity at 10 µM.
A) -11

Q) Param item = Cc1ccc(OCc2cccc(C(=O)N(C)C(C)CC#N)c2)cn1 (stereo not drawn) ; retrieve measured cytotoxicity at 10 µM.
A) 6.36

Q) Param item = COc1c(CNC2CCN(C(=O)C3CC3)CC2)c(C(C)C)nn1C ; retrieve measured cytotoxicity at 10 µM.
A) -4.72

Q) Param item = Cc1cccc(CN2C(=O)CCC23CCN(C(=O)NC(C)C)CC3)n1 ; retrieve measured cytotoxicity at 10 µM.
A) 5

Q) Param item = COc1ccc(-c2cnc(CN3CCCC3Cn3cncn3)o2)cc1 (stereo not drawn) ; retrieve measured cytotoxicity at 10 µM.
A) 3.41

Q) Param item = Cc1cc(NC(=O)CNC2CCc3ncnn3C2)no1 (stereo not drawn) ; retrieve measured cytotoxicity at 10 µM.
A) -6.73

Q) Param item = O=C(NCCNc1cnccn1)N1CC=C(c2ccccc2)CC1 ; retrieve measured cytotoxicity at 10 µM.
A) 6.39

Q) Param item = CC(C)N(C)C(=O)C1CSCN1S(=O)(=O)c1ccccc1F (stereo not drawn) ; retrieve measured cytotoxicity at 10 µM.
A) 8.65

====

test: Toxicity liver stage against HepG2, at 10uM; format: cell-based; design: test concentration 10 uM, cell line HepG2-A16-CD81EGFP; settings: human, HepG2-A16-CD81EGFP cells; read-out: INHIBITION
# cytotoxicity at 10 µM per entry
Provide the reading as a plain figure in %.

CN(C)CC(=O)N1CCC2(CC1)COCCN(Cc1ccncc1)C2 :: -80.8
O=C1NCC[C@]12CN(CC1CCOCC1)C[C@H]2c1ccccc1 :: 6.59
Cc1ccccc1CN1C[C@H]2CC[C@@H](C1)N(CC1CCC1)C2=O :: 4.86

Q) Param item = CN(Cc1nc(-c2ccco2)no1)C1CCCN(c2cccnn2)C1 (configuration not stated) ; retrieve measured cytotoxicity at 10 µM.
A) -7.72

Q) Param item = Cc1oncc1C(=O)NCc1cc(=O)n2c(n1)CN(C(C)C)CCC2 ; retrieve measured cytotoxicity at 10 µM.
A) 2.45

Q) Param item = Cc1cccc(C)c1OCCNC(=O)NC(C)c1nncn1C (configuration not stated) ; retrieve measured cytotoxicity at 10 µM.
A) 7.8

Q) Param item = Cc1cc(=O)c2ccccc2n1CC1CCCN(C)C1 (configuration not stated) ; retrieve measured cytotoxicity at 10 µM.
A) -5.82

Q) Param item = CN1CCO[C@@H]2CN(S(=O)(=O)c3ccccc3F)CC[C@@H]2C1 ; retrieve measured cytotoxicity at 10 µM.
A) 1.35

Q) Param item = O=C1CC(c2ccccc2)C2(CCN(C(=O)c3cnccn3)CC2)N1 (configuration not stated) ; retrieve measured cytotoxicity at 10 µM.
A) -75.1

Q) Param item = CCc1ncc(CN2C[C@@H]3C[C@@H](O)CN3C[C@@H]2Cc2ccccc2)cn1 ; retrieve measured cytotoxicity at 10 µM.
A) -5.02

Q) Param item = Cc1noc([C@H]2C[C@H]3CN(C(=O)C4CCOCC4)CC[C@@H]3O2)n1 ; retrieve measured cytotoxicity at 10 µM.
A) -72.6

Q) Param item = Cc1c(F)cccc1S(=O)(=O)NCC(C)(C)CC(C)O (configuration not stated) ; retrieve measured cytotoxicity at 10 µM.
A) -8.29

====

test: Toxicity liver stage against HepG2, at 10uM; type: cell-based; design: test concentration 10 uM, cell line HepG2-A16-CD81EGFP; details: human, HepG2-A16-CD81EGFP cells; read-out: INHIBITION
ATTRIBUTE MEASURED: cytotoxicity at 10 µM (%)
Provide the reading as a plain figure in %.

Example cases with answers are listed next.
Cc1ccc(C(=O)N2CCC3(CC2)CC(N2CCOCC2)C3)cc1 :: 1.93
CCC1CN(C(=O)c2ccc(=O)[nH]c2)CCC(=O)N1Cc1ccccc1 (stereo unspecified) :: -17.6
Cc1cnn(CC2CCCN2Cc2cc(C)no2)c1 (stereo unspecified) :: -1.66
Cc1cnc(CN2CCN(C(C)c3nc(C)no3)CC2)cn1 (stereo unspecified) :: 1.81
CC(C)c1nc(CN(CC(N)=O)C(C)C)cs1 :: -14.4

Q) Param item = CCCNC(=O)CNc1cc(C(=O)NCC(F)(F)F)cc(F)c1C ; retrieve measured cytotoxicity at 10 µM.
A) 10

Q) Param item = CCc1cnc(N2C[C@H]3CN(Cc4ccc(OC)cc4)C(=O)[C@H]3C2)nc1 ; retrieve measured cytotoxicity at 10 µM.
A) 11.6

====

test: Toxicity liver stage against HepG2, at 10uM; format: cell-based; set-up: test concentration 10 uM, cell line HepG2-A16-CD81EGFP; conditions: human, HepG2-A16-CD81EGFP cells; read-out: INHIBITION
# cytotoxicity at 10 µM per entry
Provide the reading as a plain figure in %.

Example cases with answers are listed next.
Cn1cnnc1C1CCCN(Cc2nc(Cc3ccccc3)no2)C1 (centres undefined) :: -4.29
Cc1ccc(N2CCCC(N(C)c3ncnc4c3CCC4)C2)nn1 (centres undefined) :: 6.86
CNC(=O)[C@@H]1C[C@H](N)CN1Cc1cc2cc(OC)ccc2nc1O :: -6.69
Cn1cnc2c1CCN(Cc1csc(-c3ccc(F)cc3)n1)C2 :: -4.78

Q) Param item = COc1ccc(C(=O)n2nc(C)c(C)c2C)cc1 ; retrieve measured cytotoxicity at 10 µM.
A) 6.06

Q) Param item = CC(=O)N1CC[C@@H](N2CCN(C)CC2)[C@@H]1Cc1ccccc1 ; retrieve measured cytotoxicity at 10 µM.
A) 9.04

Q) Param item = CC(NC(=O)Nc1cccnc1N1CCCC1)c1ccn(C)c1 (centres undefined) ; retrieve measured cytotoxicity at 10 µM.
A) -24.6

Q) Param item = CC(NC(=O)NCc1ccccc1F)(C(=O)O)c1ccco1 (centres undefined) ; retrieve measured cytotoxicity at 10 µM.
A) -5.64

====

# cytotoxicity at 10 µM per entry
assay: Toxicity liver stage against HepG2, at 10uM; format: cell-based; parameters: test concentration 10 uM, cell line HepG2-A16-CD81EGFP; details: human, HepG2-A16-CD81EGFP cells; read-out: INHIBITION
Provide the reading as a plain figure in %.

Example cases with answers are listed next.
COc1cccc(C)c1C(=O)N1CCc2ncnc(NCCO)c2CC1 :: 5.69
CC(=O)NC(Cc1c[nH]c2cc(F)ccc12)C(=O)Nc1cnn(C)c1 (stereo not drawn) :: 13.9
Cc1cc(CC(C)NC2CCN(CC(C)C)CC2)[nH]n1 (stereo not drawn) :: -8.32
Cc1noc(C)c1CN1CC[C@@H](OCC2CC2)[C@@H](Cc2ccccc2)C1 :: 11.5
CC(c1ccccn1)N(C)Cc1ccc(-n2ccnc2)cc1 (stereo not drawn) :: -0.452

Q) Param item = NC(=O)C1CCN(CCc2ccc(NCc3cccnc3)cc2)CC1 ; retrieve measured cytotoxicity at 10 µM.
A) 8.02

Q) Param item = COC(=O)c1cc(OCC2CCC2)cc(C(=O)N[C@H](C)C(N)=O)c1 ; retrieve measured cytotoxicity at 10 µM.
A) 16.6

Q) Param item = CCS(=O)(=O)NCc1nc(C)cc(N2CCCCC2)n1 ; retrieve measured cytotoxicity at 10 µM.
A) 6.79

Q) Param item = CCOc1ccc(NCc2cnc(N3CCN(C)CC3)nc2)cn1 ; retrieve measured cytotoxicity at 10 µM.
A) -0.512

====

assay: Toxicity liver stage against HepG2, at 10uM; assay type: cell-based; set-up: test concentration 10 uM, cell line HepG2-A16-CD81EGFP; details: human, HepG2-A16-CD81EGFP cells; read-out: INHIBITION
ATTRIBUTE MEASURED: cytotoxicity at 10 µM (%)
Provide the reading as a plain figure in %.

Example cases with answers are listed next.
CC(OCC(F)(F)F)C(=O)N1CCOCC1 (configuration not stated) :: -11.9
O=C(c1ccc2c(c1)OCCCO2)N1CCCC(n2cccn2)C1 (configuration not stated) :: -15.6
Cc1nc(O)cc(C2CCCN(C(=O)COCc3ccccc3)C2)n1 (configuration not stated) :: -11
CCOc1ccc(C#N)cc1NCC(=O)NC1(C#N)CCCC1 :: -30.8
Cc1cc(NC(=O)Cn2nc(C)c(C#N)c2N)ccc1Br :: -6.58
Cc1cnc2c(S(=O)(=O)NCC3CCS(=O)(=O)C3)cccc2c1 (configuration not stated) :: -7.52

Q) Param item = COc1ccnc(N2CCN(CC(=O)N3CCC(C)CC3)CC2)n1 ; retrieve measured cytotoxicity at 10 µM.
A) -3.63

Q) Param item = OCCN(Cc1cccnc1)c1ncc(Br)cn1 ; retrieve measured cytotoxicity at 10 µM.
A) 9.68

Q) Param item = Cn1cc(C(=O)N2CCOc3ccccc32)ccc1=O ; retrieve measured cytotoxicity at 10 µM.
A) 13

Q) Param item = NC(=O)Cn1ccc(NC(=O)C2(c3cccc(F)c3)CCC2)n1 ; retrieve measured cytotoxicity at 10 µM.
A) -5.75

Q) Param item = CCn1cc(CN(C)Cc2cnn(-c3ccc(F)cc3)c2)cn1 ; retrieve measured cytotoxicity at 10 µM.
A) -5.44

Q) Param item = CNC(=O)CN1CCOCC2(CCCN(Cc3ccoc3)C2)C1 (configuration not stated) ; retrieve measured cytotoxicity at 10 µM.
A) 6.65
